The measurements presented in this section are drawn from patent US20240182596A1.

For each of the binders below, state its pKd.
# target-system: T1, human Napi2b-mCherry on HEK293 cells (human, UniProt O95436 1-690)
# T1 construct: also called Napi2b (SLC34A2); HEK293 cells overexpressing Napi2b
# T1 sequence: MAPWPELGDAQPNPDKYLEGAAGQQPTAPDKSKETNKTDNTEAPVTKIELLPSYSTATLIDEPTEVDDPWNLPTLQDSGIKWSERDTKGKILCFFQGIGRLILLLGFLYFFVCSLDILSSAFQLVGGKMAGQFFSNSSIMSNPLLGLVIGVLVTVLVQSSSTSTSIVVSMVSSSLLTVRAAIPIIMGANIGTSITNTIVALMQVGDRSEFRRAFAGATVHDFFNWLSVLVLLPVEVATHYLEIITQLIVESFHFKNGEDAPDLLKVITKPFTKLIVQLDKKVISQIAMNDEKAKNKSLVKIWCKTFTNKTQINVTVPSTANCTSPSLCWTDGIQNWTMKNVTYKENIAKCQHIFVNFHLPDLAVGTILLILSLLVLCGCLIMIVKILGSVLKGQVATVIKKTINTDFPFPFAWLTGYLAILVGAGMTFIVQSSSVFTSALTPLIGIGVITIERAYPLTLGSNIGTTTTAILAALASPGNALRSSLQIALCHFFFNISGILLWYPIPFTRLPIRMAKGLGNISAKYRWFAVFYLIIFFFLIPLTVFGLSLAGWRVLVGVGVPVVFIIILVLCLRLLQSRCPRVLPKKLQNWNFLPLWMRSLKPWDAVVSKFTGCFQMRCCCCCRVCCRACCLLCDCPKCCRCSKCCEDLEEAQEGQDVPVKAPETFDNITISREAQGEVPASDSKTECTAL
# test-summary: flow cytometry on HEK293 cells stably expressing human full-length NaPi2b-mCherry, Alexa-dye anti-human IgG H+L secondary antibody, MFI ratio, one-site specific binding fit; the Kd table prints no unit, the concentration axis is in nM
Answers are plain numbers, as −log10 of the molar value.

The following binders have reported results that may help.
{"binder": "parental mAb (parental anti-NaPi2b antibody) (antibody, human IgG1, kappa, L234A L235A, V domains shown, also called parental antibody) VH: EVQLVQSGAEVVKPGASVKMSCKASGYTFTGYNIHWVKQAPGQGLEWIGAIYPGNGDTSYKQKFRGRATLTADTSTSTVYMELSSLRSEDSAVYYCARGETARATFAYWGQGTLVTVSS VL: DIQMTQSPSSLSASVGDRVTITCSASQDIGNFLNWYQQKPGKTVKVLIYYTSSLYSGVPSRFSGSGSGTDYTLTISSLQPEDFATYYCQQYSKLPLTFGQGTKLELKR", "pKd": 8.27}
{"binder": "AV-29 antibody (antibody, human IgG1, kappa, L234A L235A, V domains shown) VH: EVQLVQSGAEVVKPGASVKMSCKASGYTFTGYNILWVKQAPGQGLEWIGAIYPGNGGTSYKQKFRGRATITADTSTSTVYMELSSLRSEDSAVYYCARGEIARATFAYWGQGTLVTVSS VL: DIQMTQSPSSLSASVGDRVTITCSASQDIGNFLNWYQQKPGKTVKVLIYYASSLYSGVPSRFSGSGSGTDYTLTISSLQPEDFATYYCQQYSKLPLTFGQGTKLELKR", "pKd": 8.57}

Task: For the binder shown here, AV-21 antibody (antibody, human IgG1, kappa, L234A L235A, V domains shown) VH: EVQLVQSGAEVVKPGASVKMSCKASGYTFTGQIIHWVKQAPGQGLEWIGAISPGNSGTSYKQKFRGRATLTADTSTSTVYMELSSLRSEDSAVYYCARGETARATFAYWGQGTLVTVSS VL: DIQMTQSPSSLSASVGDRVTITCSASQDIGNFLNWYQQKPGKTVKVLIYYTSSLYSGVPSRFSGSGSGTDYTLTISSLQPEDFATYYCQQYSKLPLTFGQGTKLELKR , give the reported pKd.
Result: 8.68
